- Tested system: T1, AAV5
- T1 construct: also called adeno-associated virus serotype 5
- Run description: SPR, AAV on CM5 chip;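 also: surface plasmon resonance with AAV amine-coupled to the chip as ligand, nanobodies injected as analyte over a concentration series, rate constants and affinity fitted from binding curves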

Binder	kon [M⁻¹ s⁻¹]
A4-041 (VHH) VHH: VQLQESGGGLVQPGGSLRLSCAASGRGFSINTMGWYRQAPGKQRELVATVTRGGSTNYANSVKGRFTISRDNAKNTVYLQMNSLRPEDTAVYYCHVDELRQSSWTTSNLWGQGTQVTVSS	134000
A4-016 (VHH) VHH: VQLQESGGGLVQPGGSLRLSCAASGSIFSINLMGWYRQAPGKQRELVATITPGGNTNYAGSVKGRFTISRDNAKNTVYLQMNSLRPEDTAVYYCHVDEVRQSSWTTSNLWGQGTQVTVSS	66000
A4-003 (VHH) VHH: VQLQESGGGLVQPGGSLRLSCVASGRSFSINTMGWYRQAPGKQRELVAAVTRGGSTNYAGSVKGRFTISRDNAKNTVYLQMNSLRPEDTAVYYCHIDEVRQSSWTTSNIWGQGTQVTVSS	23100
A4-039 (VHH) VHH: VQLQESGGGLVQPGGSLRLSCAASGSGFSINTMGWYRQAPGKWRELVATVTRGGSTNYAGSVKGRFTISRDNAKNTVYLQMNSLRPEDTAVYYCHIDEVRQSSWTTSNLWGQGTQVTVSS	7410
A4-048 (VHH) VHH: VQLQESGGGLVQPGGSLRLSCAASGSMFSINTMGWYRQAPGKQRELVATVTRGGNTNYAGSVKGRFTISRDNAKNTVYLQMNSLRPEDTAVYYCHVDEVRQSSWTTSNLWGQGTQVTVSS	9380
A4-001 (VHH) VHH: VQLQESGGGLVQPGGSLRLSCAASGRSFSINTMGWYRQAPGKQRELVATVTRGGSTNYAGSVKGRFTISRDNAKNTVYLQMNSLRPEDTAVYYCHIDEVRQSSWTTSNIWGQGTQVTVSS	151000
A4-037 (VHH) VHH: VQLQESGGGLVQPGGSLRLSCAASGSIFSINTMGWYRQAPGKQRELVATVTRGGSTNYAGSVKGRFTISRDNAKNTVYLQMNSLRPEDTAVYYCHLDEVRQSSWTTSNIWGQGTQVTVSS	136000
A4-027 (VHH) VHH: VQLQESGGGLVQPGGSLRLSCAASGSNFSINTMGWYRQAPGKQRELVAALTRGGSTNYADSVKGRFTISRDNAKNTVYLQMNSLRPEDTAVYYCHVDEVRESSWTTSNLWGQGTQVTVSS	8220
A4-007 (VHH) VHH: VQLQESGGGLVQAGGSLRLSCAASGRHFSINTMGWYRQAPGKQRELVAAVTRGGSTNYAGSVKGRFTISRDNAKNTVYLQMNSLRPEDTAVYYCHIDEVRQSSWTTSNIWGQGTQVTVSS	19700
A4-026 (VHH) VHH: VQLQESGGGLVQPGGSLRLSCAASGSNFRINTMGWYRQAPGKQRELVAPVTRGGSTNYADSVKGRFTISRDNAKNTVYLQMNSLRPEDTAVYYCHVDEVRESSWTTSNLWGQGTQVTVSS	167000
A4-025 (VHH) VHH: VQLQESGGGLVQPGGSLRLSCAASGSNFRINTMGWYRQAPGKQRELVATVTRGGSTNYADSVKGRFTISRDNPKDTVYLQMNSLRPEDTAVYYCHVDEVRESSWTTSNLWGQGTQVTVSS	4800
A4-030 (VHH) VHH: VQLQESGGGLVQPGGSLRLSCAASGSSFTINTMGWYRQAPGKQRELVAAVTRGGSTNYAGSVKGRFTISRDNAKNTIYLQMNSLRPEDTAVYYCHVDEIRQSSWTTSNLWGQGTQVTVSS	3320
A4-033 (VHH) VHH: VQLQESGGGLVQPGGSLRLSCVASGSSFSINTMGWYRRAPGKQRELVATVTRDGSTNYANSVKGRFTISRDNAKNTVYLQMNSLRPEDTAVYYCHVDEVRQSSWTTSNLWGQGTQVTVSS	8220
A4-022 (VHH) VHH: VQLQESGGGLVQPGGSLRLSCAASGSGFSINTMGWYRQAPGKQRELVATVTRDGSTNYADFVKGRFTISRDNAKNTVYLQMNSLRPEDTAVYYCHLDEVRESSWTTSNLWGQGTQVTVSS	158000
A4-042 (VHH) VHH: VQLQESGGGLVQPGGSLRLSCAASGRAFSINTMGWYRQAPGKQRELVATVTRDGSTNYADSVKGRFTISRDNAKNTVYLQMNSLRPEDTAVYYCHVDEVRQSSWTTSNLWGQGTQVTVSS	7760
